molecular target: Alpha-1A adrenergic receptor (Homo sapiens, UniProt P35348); test: Displacement of [3H]-prazosin from human alpha1A adrenergic receptor transfected in COS1 cells; format: cell-based, COS-1
Sequence (P35348 whole entry): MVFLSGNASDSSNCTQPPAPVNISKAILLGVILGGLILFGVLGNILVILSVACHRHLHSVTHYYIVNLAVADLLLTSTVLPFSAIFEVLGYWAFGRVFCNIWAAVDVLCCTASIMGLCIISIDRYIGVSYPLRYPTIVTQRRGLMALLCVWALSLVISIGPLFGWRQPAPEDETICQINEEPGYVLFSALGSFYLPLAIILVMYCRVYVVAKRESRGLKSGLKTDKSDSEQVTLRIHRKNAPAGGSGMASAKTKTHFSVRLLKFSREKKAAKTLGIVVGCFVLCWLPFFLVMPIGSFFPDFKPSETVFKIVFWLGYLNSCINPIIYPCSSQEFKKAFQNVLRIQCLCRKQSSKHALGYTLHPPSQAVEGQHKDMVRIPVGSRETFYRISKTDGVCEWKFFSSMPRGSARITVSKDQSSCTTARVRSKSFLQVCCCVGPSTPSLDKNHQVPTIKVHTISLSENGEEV
endpoint: Ki (nM)

Cc1ccc2nccc(NCCNc3ccnc4ccc(C)cc34)c2c1 | 135
COc1ccc2nccc(NCCCCCCCNc3ccnc4ccc(OC)cc34)c2c1 | 316
COc1cccc2c(NCCCCCCCNc3ccnc4c(OC)cccc34)ccnc12 | 74.1
c1ccc2c(NCCNc3ccnc4ccccc34)ccnc2c1 | 26.3
Cc1ccc2c(NCCCCCCCNc3ccnc4cc(C)ccc34)ccnc2c1 | 112
COc1ccc2c(NCCCCCCCNc3ccnc4cc(OC)ccc34)ccnc2c1 | 257
Cc1ccc2c(NCCNc3ccnc4cc(C)ccc34)ccnc2c1 | 120

(1) COc1ccc2c(NCCNc3ccnc4cc(OC)ccc34)ccnc2c1
(2) COc1cccc2c(NCCNc3ccnc4c(OC)cccc34)ccnc12
(3) c1ccc2c(NCCCCCCCNc3ccnc4ccccc34)ccnc2c1
(4) Cc1cccc2c(NCCNc3ccnc4c(C)cccc34)ccnc12
(5) Cc1ccc2nccc(NCCCCCCCNc3ccnc4ccc(C)cc34)c2c1
Task: Write the entries in order, lowest recorded Ki first. Hello, could you send the labels back in the order asked? Thank you.
Output: 4, 1, 3, 2, 5
(4: 7.41 nM, 1: 69.2 nM, 3: 126 nM, 2: 195 nM, 5: 617 nM)

---

Target: Alpha-1B adrenergic receptor (Homo sapiens)
Sequence (P35368 whole entry): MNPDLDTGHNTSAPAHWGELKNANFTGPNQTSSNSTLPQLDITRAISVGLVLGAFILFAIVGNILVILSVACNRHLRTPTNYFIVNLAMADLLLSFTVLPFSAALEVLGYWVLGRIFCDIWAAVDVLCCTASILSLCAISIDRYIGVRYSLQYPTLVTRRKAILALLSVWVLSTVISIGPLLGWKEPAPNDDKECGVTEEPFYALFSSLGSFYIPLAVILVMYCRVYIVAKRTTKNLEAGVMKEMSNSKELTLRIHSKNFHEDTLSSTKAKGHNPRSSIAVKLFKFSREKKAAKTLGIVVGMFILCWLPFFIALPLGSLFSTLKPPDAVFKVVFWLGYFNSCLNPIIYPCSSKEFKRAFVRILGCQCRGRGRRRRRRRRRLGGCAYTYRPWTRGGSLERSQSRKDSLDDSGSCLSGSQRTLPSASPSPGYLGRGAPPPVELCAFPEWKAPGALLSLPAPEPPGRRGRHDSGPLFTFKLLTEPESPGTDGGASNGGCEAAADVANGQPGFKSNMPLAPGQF
Experiment: Displacement of [3H]-prazosin from human alpha1B adrenergic receptor transfected in COS1 cells
Format: cell-based, COS-1
endpoint: Ki (nM)

Record excerpt, results attached:
COc1ccc2nccc(NCCCCCCCNc3ccnc4ccc(OC)cc34)c2c1 | 148
Cc1cccc2c(NCCNc3ccnc4c(C)cccc34)ccnc12 | 39.8
Cc1ccc2c(NCCNc3ccnc4cc(C)ccc34)ccnc2c1 | 47.9
c1ccc2c(NCCCCCCCNc3ccnc4ccccc34)ccnc2c1 | 148
COc1ccc2c(NCCCCCCCNc3ccnc4cc(OC)ccc34)ccnc2c1 | 34.7
COc1ccc2c(NCCNc3ccnc4cc(OC)ccc34)ccnc2c1 | 50.1
COc1cccc2c(NCCNc3ccnc4c(OC)cccc34)ccnc12 | 324
COc1cccc2c(NCCCCCCCNc3ccnc4c(OC)cccc34)ccnc12 | 155

(1) Cc1ccc2nccc(NCCCCCCCNc3ccnc4ccc(C)cc34)c2c1
(2) c1ccc2c(NCCNc3ccnc4ccccc34)ccnc2c1
(3) Cc1ccc2c(NCCCCCCCNc3ccnc4cc(C)ccc34)ccnc2c1
(4) Cc1ccc2nccc(NCCNc3ccnc4ccc(C)cc34)c2c1
Task: Write the entries in order, lowest recorded Ki first. Hello, could you send the labels back in the order asked? Thank you.
Output: 4, 2, 3, 1
